target: GST-AP-2γ (UniProt Q92754 1-450); assay: EMSA; 10 mM HEPES pH 8.0, 60 mM KCl, 4 mM MgCl2, 0.1 mM EDTA, 100 μg/ml BSA, 0.25 mM DTT, 10% glycerol, 37°C 20 min; 5 pmol probe, 50 pmol protein in 15 μl; 6% native PAGE; settings: protein: recombinant; tags: GST (N-terminal, pGEX-4T-2); chain copies: 2; label: 32P 5' end of forward strand; blunt
Sequence (Q92754 whole entry): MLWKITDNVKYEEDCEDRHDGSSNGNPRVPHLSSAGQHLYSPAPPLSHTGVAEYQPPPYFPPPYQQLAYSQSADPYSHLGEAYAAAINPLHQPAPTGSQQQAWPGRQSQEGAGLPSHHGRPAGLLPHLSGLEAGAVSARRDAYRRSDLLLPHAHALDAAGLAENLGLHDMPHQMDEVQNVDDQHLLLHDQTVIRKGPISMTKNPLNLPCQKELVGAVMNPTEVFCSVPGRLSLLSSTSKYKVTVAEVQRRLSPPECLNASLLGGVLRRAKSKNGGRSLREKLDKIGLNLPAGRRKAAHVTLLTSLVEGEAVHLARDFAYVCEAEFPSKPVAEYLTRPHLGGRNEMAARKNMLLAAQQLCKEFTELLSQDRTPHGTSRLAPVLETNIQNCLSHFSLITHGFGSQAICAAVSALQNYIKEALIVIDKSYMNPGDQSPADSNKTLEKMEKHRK
measurementLabel: binding result

Some solved cases for reference:
INSERT INTO results (binder, measurementlabel, endpointvalue) VALUES
  ('MtR3-36-676/HPSE (dsDNA) DNA 1: AATGTGATTCTGATCACTTAG DNA 2: CTAAGTGATCAGAATCACATT', 'binding result', 'no binding'),
  ('WtR3-36-676/HPSE (dsDNA) DNA 1: AATGTGGCCCTGGTCACTTAG DNA 2: CTAAGTGACCAGGGCCACATT', 'binding result', 'no binding'),
  ('MtR3-36-648/HPSE (dsDNA) DNA 1: AAAAGTATTCAGGGCCCATGA DNA 2: TCATGGGCCCTGAATACTTTT', 'binding result', 'no binding'),
  ('WtR3-36-648/HPSE (dsDNA) DNA 1: AAAAGTGCCCAGAGCCCATGA DNA 2: TCATGGGCTCTGGGCACTTTT', 'binding result', 'binds');

Data point: MtR4-28-854/CDH2 (dsDNA) DNA 1: ATGCGACCCGCAAATATGCCA DNA 2: TGGCATATTTGCGGGTCGCAT ; binding result = no binding
